Data credit: PubChem BioAssay (NCI)

System: OVCAR-4 ovarian
Experiment: NCI-60 one-dose screen, 48 h
Details: 10 µM unless noted
The panel holds about 83,000 compounds, 20% with a hit somewhere; the sample as a whole holds those more often. Activity calls are given as the source filed them. The calls were made as follows: active = growth percent below 10; inactive = the rest.
Outcome codes: active, inactive

{"smiles-record": "CCN(CC)CCN1C(=O)c2c(c3c4ccccc4[nH]c3c3ccc4ccccc4c23)C1=O", "class-assignment": "active"}
{"smiles-record": "COc1ccc(-c2nc3ccc(C)cc3c3c2c(=O)n(C)c(=O)n3C)cc1OC", "class-assignment": "inactive"}
{"smiles-record": "COC(=O)/C=C1/SC(=Nc2ccc(F)cc2)N(CCc2c[nH]c3ccc(O)cc23)C1=O", "class-assignment": "inactive"}
{"smiles-record": "Clc1ccc2nn3c4ccccc4c(OCCN4CCOCC4)nc3c2c1", "class-assignment": "inactive"}
{"smiles-record": "CNC(=O)c1cc(Oc2ccc3c(c2)sc2nc(-c4ccc(NC(=O)[C@@H](NC(=O)OC)C(C)C)cc4)cn23)ccn1", "class-assignment": "inactive"}
{"smiles-record": "O=C(Nc1ncc(Cc2ccccc2)s1)c1sc2ccccc2c1Cl", "class-assignment": "inactive"}
{"smiles-record": "c1ccc(Nc2nc3c(s2)CCc2c[nH]cc2-3)nc1", "class-assignment": "inactive"}
{"smiles-record": "O=S(=O)(N=C1C(Cl)=C(Cl)C(=NS(=O)(=O)c2ccccc2)C(Cl)=C1Cl)c1ccccc1", "class-assignment": "inactive"}
{"smiles-record": "CN(C)CCCn1c2c(c3cnccc3c1=O)C(=O)c1ccccc1-2", "class-assignment": "active"}
{"smiles-record": "COC(=O)[C@@]12CC=C(C)[C@]3(C[C@H](c4ccoc4)OC3=O)[C@H]1C=C[C@@H](O)[C@@]2(O)C(=O)OC", "class-assignment": "inactive"}
{"smiles-record": "COc1cccc(CNc2c3ccccc3nc3ccccc23)c1OC", "class-assignment": "inactive"}
{"smiles-record": "Cc1nc2sc(C(=O)Nc3cccc4ccccc34)c(N)c2cc1C(=O)c1ccccc1", "class-assignment": "inactive"}
{"smiles-record": "N#Cc1c(-c2ccc(Cl)cc2)nc(NN=Cc2ccc[nH]2)nc1N1CCOCC1", "class-assignment": "inactive"}
{"smiles-record": "COCCn1cc(-c2csc(-c3c[nH]c4ccc(F)cc34)n2)c2cccnc21", "class-assignment": "inactive"}
{"smiles-record": "O=C(/C=C/c1cn(-c2ccccc2)nc1-c1ccccc1)CCC(=O)NO", "class-assignment": "inactive"}
{"smiles-record": "C#CCOc1ccc2nc(CCl)c(Cl)c(Nc3cccc(C(F)(F)F)c3)c2c1", "class-assignment": "inactive"}
{"smiles-record": "O=C1/C(=C/c2ccccn2)SC(=S)N1N1CCOCC1", "class-assignment": "inactive"}
{"smiles-record": "Cn1c(=O)c2[nH]c(SC/C(=N/O)c3ccc(Br)cc3)nc2n(C)c1=O", "class-assignment": "active"}
{"smiles-record": "ClC(Cl)c1nc(-c2ccccc2)n2nc(-c3ccccc3)cc2n1", "class-assignment": "active"}
{"smiles-record": "Cc1c2ccccc2nc2cc3c(cc12)[C@H]1CC[C@]2(C)C(=O)CC[C@H]2[C@@H]1CC3", "class-assignment": "inactive"}

---

System: PC-3 prostate
Assay: NCI-60 one-dose screen, 48 h (100 = growth as untreated, 0 = no growth, -100 = all killed)
Settings: 10 µM unless noted
The panel holds about 83,000 compounds, 20% with a hit somewhere; the sample as a whole holds those more often.

{"compound": "Cc1cn(C)cn1", "system-name": "PC-3 prostate", "unit-string": "%", "growth": 93.9}
{"compound": "CC/C(=C(/c1ccc(O)cc1)c1ccc(OCCN2CCCCC2)cc1)c1ccc(OC)cc1", "system-name": "PC-3 prostate", "unit-string": "%", "growth": 79.4}
{"compound": "COc1ccc(-c2cc(-c3cn(-c4cccc(Cl)c4)nc3-c3ccc(OC)cc3)on2)cc1", "system-name": "PC-3 prostate", "unit-string": "%", "growth": 86.5}
{"compound": "CN(C)c1ccc(CNCCO)cc1", "system-name": "PC-3 prostate", "unit-string": "%", "growth": 68.5}
{"compound": "COc1ccccc1/C=C/C(=O)Nc1ccc(F)cc1", "system-name": "PC-3 prostate", "unit-string": "%", "growth": 95.7}
{"compound": "Cc1ccc(Cc2cnc(NC(=O)/C=C/c3ccc(C)o3)s2)cc1", "system-name": "PC-3 prostate", "unit-string": "%", "growth": 33.3}
{"compound": "COc1ccc(/C=C(\\C(=O)NCc2cccnc2)S(=O)(=O)c2ccccc2)cc1OC", "system-name": "PC-3 prostate", "unit-string": "%", "growth": 36.5}
{"compound": "CN(C)c1ccc([C@@H](C(=O)Nc2cccc([N+](=O)[O-])c2)N(C(=O)c2cc3ccccc3[nH]2)c2cccc([N+](=O)[O-])c2)cc1", "system-name": "PC-3 prostate", "unit-string": "%", "growth": 82.7}
{"compound": "CC12OC(CC(O)C1O)n1c3ccccc3c3c4c(c5c6ccccc6n2c5c31)C(=O)N(CCN1CCCC1)C4=O (stereo unspecified)", "system-name": "PC-3 prostate", "unit-string": "%", "growth": 20.8}
{"compound": "N#Cc1c(-c2ccccc2)cc(-c2ccccc2)n(CCCCC(=O)NO)c1=O", "system-name": "PC-3 prostate", "unit-string": "%", "growth": 32.9}
{"compound": "CN(C)Cc1ccc(NC(=O)c2cncc(C#Cc3cnc(N)c4ncccc34)c2)cc1C(F)(F)F", "system-name": "PC-3 prostate", "unit-string": "%", "growth": 92.2}
{"compound": "N[C@@H]1CCC[C@H]1NCCCCN1C(=O)c2cccc3cc([N+](=O)[O-])cc(c23)C1=O", "system-name": "PC-3 prostate", "unit-string": "%", "growth": 39}
{"compound": "O=c1oc2c(cc1-c1ccccc1)c[n+]([O-])c1ccccc21", "system-name": "PC-3 prostate", "unit-string": "%", "growth": 97}
{"compound": "C(=C(\\C1=NCCN1)n1ccc2ccccc21)/c1ccccc1", "system-name": "PC-3 prostate", "unit-string": "%", "growth": 95.5}
{"compound": "COC(=O)/C=C1/SC(=Nc2ccc(F)cc2)N(CCc2c[nH]c3ccc(O)cc23)C1=O", "system-name": "PC-3 prostate", "unit-string": "%", "growth": 33.3}
{"compound": "CCCOC(=O)Nc1nc2ccc(SCC)cc2s1", "system-name": "PC-3 prostate", "unit-string": "%", "growth": 80.8}
{"compound": "CCCCCCCCn1ccc2cc(NC(=O)CN=[N+]=[N-])ccc21", "system-name": "PC-3 prostate", "unit-string": "%", "growth": 91.2}
{"compound": "CC(C)c1ccc2c(c1)CC[C@H]1[C@](C)(C(=O)OCC#CCN3CCCC3)CCC[C@]21C", "system-name": "PC-3 prostate", "unit-string": "%", "growth": 61.9}
{"compound": "N=C(N)c1ccc(-c2ccc(-c3ccccc3)o2)o1", "system-name": "PC-3 prostate", "unit-string": "%", "growth": 30.4}
{"compound": "COc1ccc(C/C(C)=C(\\c2ccc(Cl)cc2)c2ccc(OCCCN(C)C)cc2)cc1", "system-name": "PC-3 prostate", "unit-string": "%", "growth": 68.7}
{"compound": "Cc1ccc(-c2csc(NC(=O)CSc3nc(N)cc(N)n3)n2)cc1", "system-name": "PC-3 prostate", "unit-string": "%", "growth": 70.5}
